# Tgt: Estrogen receptor beta (Homo sapiens)
Value Type: IC50

INSERT INTO assay_data (smiles_str, tgt, value_type, recorded_result) VALUES
  ('O=C(O)/C=C/c1ccc2c(C(=O)c3ccc(OCCN4CCCCC4)cc3)c(-c3ccc(O)cc3)sc2c1', 'Estrogen receptor beta (Homo sapiens)', 'IC50', '> 10 µM');

====

# Tgt: Estrogen receptor beta (Homo sapiens, UniProt Q92731, E305A)
# Sequence (Q92731 whole entry E305A): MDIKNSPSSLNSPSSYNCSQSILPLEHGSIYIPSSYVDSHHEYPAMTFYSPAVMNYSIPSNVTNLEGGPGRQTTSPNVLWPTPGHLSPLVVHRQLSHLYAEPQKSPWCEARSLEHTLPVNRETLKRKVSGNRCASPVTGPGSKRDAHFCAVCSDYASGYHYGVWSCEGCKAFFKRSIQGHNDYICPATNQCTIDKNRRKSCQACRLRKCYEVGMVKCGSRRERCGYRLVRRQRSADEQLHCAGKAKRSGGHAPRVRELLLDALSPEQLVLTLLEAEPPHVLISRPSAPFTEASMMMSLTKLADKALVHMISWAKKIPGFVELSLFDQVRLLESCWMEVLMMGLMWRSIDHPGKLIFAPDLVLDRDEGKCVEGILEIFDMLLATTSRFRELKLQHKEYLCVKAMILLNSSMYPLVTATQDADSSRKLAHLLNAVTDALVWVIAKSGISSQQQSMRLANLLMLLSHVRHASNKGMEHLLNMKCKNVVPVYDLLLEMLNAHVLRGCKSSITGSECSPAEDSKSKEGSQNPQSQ
Value Type: IC50

INSERT INTO assay_data (smiles_str, recorded_result) VALUES
  ('O=C(O)/C=C/c1ccc2c(C(=O)c3ccc(OCCN4CCCCC4)cc3)c(-c3ccc(O)cc3)sc2c1', '> 10 µM');
